- System: Candida albicans
- assay-notes: Inhibitory activity against Candida albicans
- Type: functional, organism-based
pIC50: −log10 of the molar value.

{"sequence": "NYSTATIN", "pIC50": 3.60}

* * *

- Test system: Candida tropicalis
- assay-notes: Inhibitory activity against Candida tropicalis
- Type: functional, organism-based
- run-parameters: Candida tropicalis
pIC50: −log10 of the molar value.

{"compound": "CC(=O)N1CCN(c2ccc(OCC3COC(Cn4ccnc4)(c4ccc(Cl)cc4Cl)O3)cc2)CC1 (centres undefined)", "pIC50": 4.92}
{"compound": "C1=C[C@H](C2CCCCC2)OO[C@@H]1C1CCCCC1", "pIC50": 3.70}
{"compound": "C1CC([C@H]2OO[C@@H](C3CCC3)[C@H]3O[C@H]32)C1", "pIC50": 3.60}
{"compound": "C1=C[C@@H](C2CCCCC2)OOC1", "pIC50": 4.40}
{"compound": "C1CC([C@H]2OO[C@@H](C3CCC3)[C@@H]3O[C@@H]32)C1", "pIC50": 3.30}
{"compound": "C1=C[C@H](C2CCCC2)OO[C@@H]1C1CCCC1", "pIC50": 3.90}
{"compound": "C1CCC([C@H]2OOC[C@@H]3O[C@@H]32)C1", "pIC50": 3.60}
{"compound": "O=C(C1CCCCC1)[C@H]1O[C@H]1[C@@H](O)C1CCCCC1", "pIC50": 4.20}
{"compound": "C1CCC([C@H]2OOC[C@@H]3O[C@@H]32)CC1", "pIC50": 3.90}
{"compound": "C1CCC([C@H]2OO[C@@H](C3CCCC3)[C@H]3O[C@H]32)C1", "pIC50": 3.90}
{"compound": "C1=C[C@@H](C2CCCC2)OOC1", "pIC50": 3.60}
{"compound": "C1CCC([C@H]2OO[C@@H](C3CCCCC3)[C@@H]3O[C@@H]32)CC1", "pIC50": 3.70}
{"compound": "C1=C[C@H](C2CCC2)OO[C@@H]1C1CCC1", "pIC50": 3.90}
{"compound": "C1CCC([C@H]2OOC[C@H]3O[C@@H]23)C1", "pIC50": 4.12}

* * *

- Test system: Candida tropicalis
- assay-notes: Inhibitory activity against Candida tropicalis
- Assay type: functional, organism-based
- run-parameters: Candida tropicalis
pIC50: −log10 of the molar value.
endpoint-label: pIC50

{"compound-string": "C1CCC([C@H]2OO[C@@H](C3CCCC3)[C@@H]3O[C@@H]32)C1", "numeric-readout": 3.90}
{"compound-string": "C[C@@H]1[C@H](O)[C@@H](C)/C=C/C=C/C=C/C=C/C=C/C=C/C=C/[C@H](O[C@@H]2O[C@H](C)[C@@H](O)[C@H](N)[C@@H]2O)C[C@@H]2O[C@](O)(C[C@@H](O)C[C@@H](O)[C@H](O)CC[C@@H](O)C[C@@H](O)CC(=O)O[C@H]1C)C[C@H](O)[C@H]2C(=O)O", "numeric-readout": 7.00}
{"compound-string": "C1CCC([C@H]2OO[C@@H](C3CCCCC3)[C@H]3O[C@H]32)CC1", "numeric-readout": 4.60}

Values compiled from ChEMBL document CHEMBL1138142.
